The reported numbers originate from PubChem BioAssay (NCI).

system: MCF7 breast; test: NCI-60 one-dose screen, 48 h (100 = growth as untreated, 0 = no growth, -100 = all killed); conditions: 10 µM unless noted
About 83,000 compounds went through this panel and 20% of them were active in at least one assay; those are over-represented in the sample as a whole.
Respond with Criterion met for growth values of 80% and above, Criterion not met for values below.

>>> group("Cc1ccc(S(=O)(=O)NCCNc2nc(Nc3ccc(N4CCN(C)CC4)cc3)nc3ccsc23)cc1")
"Criterion met"
>>> group("O=C(NCCN1CCCC1)c1ccc(-c2nc3ccc4[nH]ncc4c3c3c2CCCC3)cc1")
"Criterion not met"
>>> group("CCN(CC)c1cn(-c2ccc(S(N)(=O)=O)cc2)nn1")
"Criterion met"
>>> group("N#Cc1cccc(NC(=O)c2cc(-c3ccc(F)cc3F)ccc2O)c1")
"Criterion not met"
>>> group("N#Cc1c(NC(=O)c2cccc(C(F)(F)F)c2F)sc2c1CCC(=O)C2")
"Criterion not met"
>>> group("Nc1nc(-c2cccc([N+](=O)[O-])c2)c(N=Nc2ccc(Br)cc2)s1")
"Criterion not met"
>>> group("NC(=O)c1c(NC(=O)c2ccc(F)cc2F)sc2c1CCC(=O)C2")
"Criterion not met"
>>> group("NC/C(=C/F)COc1ccc2nc(NCc3cccnc3)oc2c1")
"Criterion met"

-- ask Is the recorded value of growth equal to or greater than 80% for this compound? `Nc1ncc(-c2ccc(NS(=O)(=O)c3ccc(Cl)c(Cl)c3)cc2)[nH]1`
-- reply Criterion not met

-- ask Identify whether the reported growth of the following compound is 80% or greater: `Cc1cc(-c2ccc(Cl)cc2)n(Cc2nnc(SCC(=O)Nc3ccc(S(N)(=O)=O)cc3)n2C2CCCCC2)n1`
-- reply Criterion met

----------
system: T-47D breast; experiment: NCI-60 one-dose screen, 48 h (100 = growth as untreated, 0 = no growth, -100 = all killed); details: 10 µM unless noted
Compounds without any hit were thinned out: in the full panel of roughly 83,000, 20% have a hit.
Kindly return fulfilled if reported growth is no lower than 50%; return not fulfilled if it is lower.

>>> group("Cc1nn(-c2ccccc2)c2ncnc(N/N=C/c3ccccc3O)c12")
"not fulfilled"

Here is another compound to look at.
-- ask Does growth meet or surpass 50% for `N#Cc1c(Nc2ccccc2)nn2c(-c3ccc([N+](=O)[O-])cc3)ccnc12` ?
-- reply fulfilled

----------
test system: BT-549 breast; test: NCI-60 one-dose screen, 48 h (100 = growth as untreated, 0 = no growth, -100 = all killed); conditions: 10 µM unless noted
About 83,000 compounds went through this panel and 20% of them were active in at least one assay; those are over-represented in the sample as a whole.
measured.metric: growth (%)
Unit % implied. Number only.

Below are worked cases with known answers.
>>> reading("N#Cc1cccc(CN2CCc3ncn(Cc4ccc(Cl)cc4)c(=O)c3C2)c1")
29.7
>>> reading("CCC(CC)N1C(=O)/C(=c2\\sc3n(c2=O)NC2C(N=3)N(CC)C(=O)N2CC)c2ccccc21 (centres undefined)")
102

Readout growth for `C#CCC#CCN1CCC[C@H]1C(=O)NCC(=O)OC` , test system BT-549 breast, was -91.5

growth value, target or system BT-549 breast, for `CCCCCCCn1cc2c(N[C@H](C)c3ccccc3)ncnc2n1` : 102

The recorded growth with BT-549 breast for `CCCCCc1ccc(S(=O)(=O)Nc2cc(-c3csc(NC(=O)CN4CCN(C)CC4)n3)ccc2OC)cc1` was 87.7

Param item: `COc1ccc(N2CCN(C3=C(Cl)C(=O)C(C)=C(C)C3=O)CC2)cc1` ; param system: BT-549 breast; output growth: 117

BT-549 breast growth of `O=C(Cn1cc[n+](CC(=O)c2ccc(-c3ccccc3)cc2)c1)Nc1cccc2cccnc12` is 57.4

Fill in: BT-549 breast growth for `NC(N)=Nc1ccc(Oc2cccc(Nc3ccc(Cl)cc3)c2)cn1` = 65.7

// assay BT-549 breast, entry COc1ccc2c(c1)Oc1nc(N)c(C#N)c(N)c1C2Sc1ccc(C)cc1 (centres undefined) , growth value = 68.4

BT-549 breast assay, compound `O=S(=O)(Nc1cccc2ccccc12)c1ccc(-c2cnc(C3CC3)o2)cc1` , recorded growth = 21.3

Fill in: BT-549 breast growth for `Nc1cc(-c2c[nH]c3ccc(Br)cc23)nc2cc(-c3c[nH]c4ccc(Br)cc34)nn12` = 76.4

Measured growth for this entry `O=C(NNc1nc2cc(F)ccc2n2cccc12)c1ccncn1` on BT-549 breast: 21.9

BT-549 breast assay, compound CCCn1cnc2c(c1=N)C(c1ccc(OC)cc1)c1sc3c(C)cccc3c1O2 (centres undefined) , recorded growth = 12.2

`CC[C@@H](CO)Nc1ccc2ncc(C#Cc3cncc(C(=O)Nc4ccc(CN5CCN(C)CC5)c(C(F)(F)F)c4)c3)n2n1` on BT-549 breast gives growth = -91.7

growth value, target or system BT-549 breast, for CCOC(=O)C(=O)/C(=C\c1ccc(Cl)cc1)C(=O)N1C(=S)NC(=O)C1CC(C)C (centres undefined) : 108

Entry `NC(=O)c1cccc(-n2ccc3cc(NC(=O)Nc4ccc(N5CCOCC5)c(C(F)(F)F)c4)ccc32)n1` , tested on BT-549 breast, has a reported growth of -14.8

Bench note, BT-549 breast: `C=CCn1c(SCC(=O)Nc2ccc(C(=O)/C=C/c3ccc(Cl)cc3)cc2)nnc1-c1c[nH]c2ccccc12` , growth reads 111

Entry O=C(NNc1nc2cc(F)ccc2n2c(CN3CC4CNCC4C3)ccc12)c1cnccn1 (centres undefined) ; assay system BT-549 breast; growth recorded at 35.3

With BT-549 breast as the test system, `C=CCn1c(-c2nc3ccc(C(=C(C#N)C#N)c4ccccc4)cc3[nH]2)cc2cc(Br)ccc21` showed growth of 71.3

----------
system: SNB-75 CNS; assay: NCI-60 one-dose screen, 48 h; conditions: 10 µM unless noted
Compounds without any hit were thinned out: in the full panel of roughly 83,000, 20% have a hit. Active and inactive are the calls of the source. How the source made its calls: active means growth percent below 10; inactive means the rest.
Classes to choose from: YES for active, NO for inactive

Some solved entries appear below for comparison.
>>> group("C/C(=N\\O)[C@H]1C[C@]23CC[C@]4(C)[C@H](CC[C@@H]5[C@@]6(C)CC/C(=N/O)C(C)(C)[C@@H]6CC[C@]54C)[C@H]2[C@H](C)C1(C)OC3")
"NO"
>>> group("COc1ccc(N2C(=O)c3cc(Cl)ccc3NC2SCc2ccccc2)cc1 (configuration not stated)")
"NO"
>>> group("COc1cc2oc(-c3cccc(N)c3)cc(=O)c2c(OC)c1OC")
"NO"

-- ask // outcome(item) with item = `Fc1ccc(-c2cc3nc(C(Cl)Cl)nc(-c4ccc(F)cc4)n3n2)cc1`
-- reply YES

-- ask Recorded test outcome, item COc1cc2nc(Cl)nc(Nc3cccc(C4=Nc5c(N)nc(N)nc5NC(c5ccc(Cl)cc5)C4)c3)c2cc1OC (configuration not stated)
-- reply NO

----------
The reader will find reported growth values listed item by item below.
tested on: UO-31 renal; assay: NCI-60 one-dose screen, 48 h (100 = growth as untreated, 0 = no growth, -100 = all killed); settings: 10 µM unless noted
About 83,000 compounds went through this panel and 20% of them were active in at least one assay; those are over-represented in the sample as a whole.
Kindly provide the numeric value in % only, without the unit symbol.

A selection of reference data follows.
>>> reading("CCOC(=O)C1=NNC(c2ccc(Cl)cc2)C1C(=O)N1C(=S)NC(=O)C1CC(C)C (stereo not given)")
81.4
>>> reading("COc1ccc(Cn2cc3c(c2-c2cc(OC)c(OC)c(OC)c2)CCc2c(CN4CCCC4)noc2-3)cc1")
35.9
>>> reading("COc1ccccc1-n1cc(C#N)c(N)c1C(=O)c1ccc(Br)cc1")
73
>>> reading("COc1cc2c(cc1OC)C(Sc1ccc(F)cc1)c1c(nc(N)c(C#N)c1N)O2 (stereo not given)")
-98.1
>>> reading("COc1cc(-c2nc(SCCC(C)C)nc(NNC(=O)c3ccncc3)c2C#N)cc(OC)c1OC")
19.3
>>> reading("N#Cc1c(NC(=O)c2cccc(C(F)(F)F)c2F)sc2c1CCC(=O)C2")
-99.7

// Nc1nc(N)c2c(n1)NC(c1ccc(Cl)cc1)CC(c1ccc(Nc3nc(NCCO)nc(N4CCOCC4)n3)cc1)=N2 (stereo not given) : growth value = 84.4

The recorded growth for entry `COc1ccc(C(=O)Nc2ncc(Cc3ccccc3Cl)s2)cc1` equals 38.1

CCN(CC)c1ccc2c(c1)Oc1nc(N)c(C#N)c(N)c1C2Sc1ccc(F)cc1 (stereo not given) yielded growth of -99.5

// O=C(NNc1nc2cc(F)c(F)cc2n2c(CN3CC4CNCC4C3)ccc12)c1cnccn1 (stereo not given) : growth value = 14.1
